subjectOfTest: RET (G810S/M918T) (Homo sapiens, UniProt P07949, G810S/M918T)
Construct: purchased Reaction Biology Corp
Sequence (P07949 29-1114 G810S/M918T): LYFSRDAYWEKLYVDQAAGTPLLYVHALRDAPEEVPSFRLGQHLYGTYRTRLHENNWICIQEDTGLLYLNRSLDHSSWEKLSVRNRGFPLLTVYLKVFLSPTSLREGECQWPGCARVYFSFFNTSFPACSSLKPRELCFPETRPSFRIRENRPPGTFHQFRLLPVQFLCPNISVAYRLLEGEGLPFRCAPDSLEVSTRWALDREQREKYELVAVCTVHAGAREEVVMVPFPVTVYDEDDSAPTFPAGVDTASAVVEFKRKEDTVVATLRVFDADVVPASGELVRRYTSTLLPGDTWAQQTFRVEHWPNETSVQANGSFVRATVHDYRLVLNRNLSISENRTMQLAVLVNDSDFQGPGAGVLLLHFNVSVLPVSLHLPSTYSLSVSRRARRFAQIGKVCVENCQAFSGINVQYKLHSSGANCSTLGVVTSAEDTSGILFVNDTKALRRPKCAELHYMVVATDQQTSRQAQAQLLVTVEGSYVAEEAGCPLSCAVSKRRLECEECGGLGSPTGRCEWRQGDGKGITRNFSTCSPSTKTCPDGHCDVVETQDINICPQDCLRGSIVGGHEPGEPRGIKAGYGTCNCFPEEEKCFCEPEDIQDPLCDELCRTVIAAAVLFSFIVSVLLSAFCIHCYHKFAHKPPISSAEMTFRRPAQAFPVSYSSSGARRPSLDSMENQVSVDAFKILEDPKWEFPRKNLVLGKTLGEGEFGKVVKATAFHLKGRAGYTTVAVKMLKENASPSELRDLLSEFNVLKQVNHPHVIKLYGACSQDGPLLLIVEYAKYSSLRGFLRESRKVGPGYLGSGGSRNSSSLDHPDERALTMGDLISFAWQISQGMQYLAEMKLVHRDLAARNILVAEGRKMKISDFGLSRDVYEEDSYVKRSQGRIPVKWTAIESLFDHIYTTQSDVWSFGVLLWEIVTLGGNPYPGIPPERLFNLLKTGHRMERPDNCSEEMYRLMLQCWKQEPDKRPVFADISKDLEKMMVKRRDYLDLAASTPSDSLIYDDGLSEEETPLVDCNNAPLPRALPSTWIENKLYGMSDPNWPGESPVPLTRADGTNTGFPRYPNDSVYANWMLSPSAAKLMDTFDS
assayRemarks: Kinase panel inhibition, radiolabeled [γ-33P] ATP (Reaction Biology Corp)
Type: biochemical
studyConditions: compound at 10 uM; ATP 1 µM; Data 1; read-out: % Enzyme Activity (relative to DMSO controls) RET (G810S/M918T) Data 1
measuredQuantity: remaining activity at 10 µM (%)

Answered cases to consult:
{"compound": "CCCCNc1cc(-c2ccc(N3CC[C@H](NC(=O)c4ccccc4F)C3)nc2)c2nccnc2c1 [Example 15]", "unitSymbol": "%", "remaining activity at 10 µM": -0.06}
{"compound": "Nc1cc(-c2ccc(N3CCN(Cc4ccc(Br)cc4)CC3)nc2)c2nccnc2c1 [Example 24]", "unitSymbol": "%", "remaining activity at 10 µM": 2.24}

I = Nc1cc(-c2cnc(N3CC[C@H](NC(=O)c4ccccc4F)C3)nc2)c2nccnc2c1 [Example 30]
II = CC(C)CNc1cc(-c2ccc(N3CC[C@H](NC(=O)c4ccccc4F)C3)nc2)c2nccnc2c1 [Example 16]
Please indicate which entry, I or II , has the lower recorded remaining activity at 10 µM value. Response format: the label of the selected entry.
I
(I: 0.97%, II: 3.39%)

* * *

Reported Cell Proliferation (% of control) by item:
Tested on: A-549
assayRemarks: Cell proliferation inhibition, Cell Counting Kit-8, non-small cell lung cancer cell line
Type: cell-based
studyConditions: A-549 cell line; 72 hours incubation; test concentration not given
API: value field is a number in %; no unit string.

Answered cases to consult:
{"molecularString": "CNc1cc(-c2ccc(N3CC[C@H](NC(=O)c4ccccc4F)C3)nc2)c2nccnc2c1", "Cell Proliferation (% of control), %": 20.80}
{"molecularString": "CCCCNc1cc(-c2ccc(N3CC[C@H](NC(=O)c4ccccc4F)C3)nc2)c2nccnc2c1", "Cell Proliferation (% of control), %": 51.55}
{"molecularString": "CCS(=O)(=O)N1CCN(c2ccc(-c3cc(N)cc4nccnc34)cn2)CC1", "Cell Proliferation (% of control), %": 68.42}

Which Cell Proliferation (% of control) value belongs to "Nc1cc(-c2cnc(N3CC(Oc4cccc(F)c4)C3)nc2)c2nccnc2c1" ?
12.87

Which Cell Proliferation (% of control) value belongs to "Nc1cc(-c2ccc(N3CC(Oc4cccc(F)c4)C3)nc2)c2nccnc2c1" ?
34.36

Which Cell Proliferation (% of control) value belongs to "CCNc1cc(-c2ccc(N3CC(Oc4cccc(F)c4)C3)nc2)c2nccnc2c1" ?
25.06

Which Cell Proliferation (% of control) value belongs to "CC(C)CNc1cc(-c2ccc(N3CC[C@H](NC(=O)c4ccccc4F)C3)nc2)c2nccnc2c1" ?
65.29

Which Cell Proliferation (% of control) value belongs to "O=C(Nc1cc(-c2ccc(N3CC[C@H](NC(=O)c4ccccc4F)C3)nc2)c2nccnc2c1)c1ccccn1" ?
35.32

Which Cell Proliferation (% of control) value belongs to "Nc1cc(-c2ccc(N3CCOCC3)nc2)c2nccnc2c1" ?
71.46

Which Cell Proliferation (% of control) value belongs to "CCCNc1cc(-c2ccc(N3CC(Oc4cccc(F)c4)C3)nc2)c2nccnc2c1" ?
43.59

Which Cell Proliferation (% of control) value belongs to "CCNc1cc(Nc2cc(C)[nH]n2)c2nccnc2c1" ?
92.91

Which Cell Proliferation (% of control) value belongs to "CC(C)CNc1cc(-c2ccc(N3CC(Oc4cccc(F)c4)C3)nc2)c2nccnc2c1" ?
53.57

Which Cell Proliferation (% of control) value belongs to "CCNc1cc(-c2ccc(N3CCN(Cc4ccc(Br)cc4)CC3)nc2)c2nccnc2c1" ?
79.51

# credit: patent EP4796538A1
